# study_system: T1, extracellular domain of activin receptor type IIB (ActRIIBecd), biotinylated (Homo sapiens (Human), UniProt Q13705 27-117, amino-biotinylated with amine-PEG3-Biotin)
# T1 construct: immobilised on a streptavidin-coated sensor chip; also called biotinylated ActRIIBecd; extracellular domain of ActRIIB
# T1 sequence: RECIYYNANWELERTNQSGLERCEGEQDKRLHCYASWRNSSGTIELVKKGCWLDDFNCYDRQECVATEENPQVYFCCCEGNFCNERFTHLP
# experiment_summary: BIAcore SPR, biotinylated ActRIIBecd on chip; SD ±13.59 nM
value_type: Kd

Briefly, Kd measured for NSKDPKACCVPTELSAISMLYLDENEKVVLKNYQDMVVHGCGCR [Clone No. 24 domain (ActRIIBecd-associated polypeptide)] : 56.7 nM
